Hello, the source for this data is patent US9434686B2, in case you need it.

Method Summary: Pharmacokinetics of WT-161 in CD-1 mice after intravenous administration (plasma, LC-MS/MS)
Assay type: in vivo
Condition: male, CD-1, mouse, plasma, iv, 5 mg/kg, 0.033 hr post-dose, IV 5 mg/kg
Value Type: concentration at 0.033 hr (ng/mL)
Please respond with the number in ng/mL and leave the unit unwritten.

Qu. Quick one: give measured concentration at 0.033 hr for `O=C(CCCCCCC(=O)N/N=C/c1ccc(N(c2ccccc2)c2ccccc2)cc1)NO`
Ans. 18700

----------
Method Summary: Pharmacokinetics of WT-161 in CD-1 mice after intravenous administration (plasma, LC-MS/MS)
Assay type: in vivo
Condition: male, mouse, plasma; CD-1 mice, IV 5 mg/kg; read-out: CLZ (systemic clearance) (converted)
Value Type: clearance (mL/min/kg)
Please reply with the bare figure in mL/min/kg and do not write the unit itself.

Qu. Retrieve clearance measured for O=C(CCCCCCC(=O)N/N=C/c1ccc(N(c2ccccc2)c2ccccc2)cc1)NO [WT-161] and print it.
Ans. 27.3

----------
Method Summary: Pharmacokinetics of WT-161 in CD-1 mice after intravenous administration (plasma, LC-MS/MS)
Format: in vivo
Condition: male, CD-1, mouse, plasma, iv, 5 mg/kg, 0.083 hr post-dose, IV 5 mg/kg; read-out: Concentration in plasma, Mean
Value Type: concentration at 0.083 hr (ng/mL)
The figure you give is taken to be in ng/mL; do not add the unit.

Qu. Identify the reported concentration at 0.083 hr for the following entry. `O=C(CCCCCCC(=O)N/N=C/c1ccc(N(c2ccccc2)c2ccccc2)cc1)NO`
Ans. 8000

----------
Method Summary: Pharmacokinetics of WT-161 in CD-1 mice after intravenous administration (plasma, LC-MS/MS)
Assay type: in vivo
Condition: male, CD-1, mouse, plasma, iv, 5 mg/kg, 0.25 hr post-dose, IV 5 mg/kg; read-out: Concentration in plasma, Mean
Value Type: concentration at 0.25 hr (ng/mL)
// return numeric value only (unit: ng/mL, not printed)

Qu. Give reported concentration at 0.25 hr value for O=C(CCCCCCC(=O)N/N=C/c1ccc(N(c2ccccc2)c2ccccc2)cc1)NO [WT-161]
Ans. 1760

----------
Method Summary: Pharmacokinetics of WT-161 in CD-1 mice after intravenous administration (plasma, LC-MS/MS)
Type: in vivo
Condition: male, CD-1, mouse, plasma, iv, 5 mg/kg, IV, nominal dose 5 mg/kg; read-out: Cmax (at 2 minutes after dosing)
Value Type: Cmax
Mention the unit after the number when you answer.

Qu. // Input: O=C(CCCCCCC(=O)N/N=C/c1ccc(N(c2ccccc2)c2ccccc2)cc1)NO [WT-161] . Output its Cmax only.
Ans. 18700 ng/mL

----------
Method Summary: Pharmacokinetics of WT-161 in CD-1 mice after intravenous administration (plasma, LC-MS/MS)
Type: in vivo
Condition: male, CD-1, mouse, plasma, iv, 5 mg/kg, 4 hr post-dose, IV 5 mg/kg
Value Type: concentration at 4 hr (ng/mL)
Report only the number, with the unit ng/mL understood.

Qu. Please indicate concentration at 4 hr recorded for `O=C(CCCCCCC(=O)N/N=C/c1ccc(N(c2ccccc2)c2ccccc2)cc1)NO`
Ans. 34.1

----------
Method Summary: Pharmacokinetics of WT-161 in CD-1 mice after intravenous administration (plasma, LC-MS/MS)
Type: in vivo
Condition: male, CD-1, mouse, plasma, iv, 5 mg/kg, 2 hr post-dose, IV 5 mg/kg; read-out: Concentration in plasma, individual mice 1-3
Protocol: WT-III-161 (Wt: 458.55 for free base) was dissolved in 25% DMSO, 25% Cremophor EL, and 50% saline to yield final concentration at 2 mg/mL for intravenous administration (pH=6-7). […] The concentrations of WT-161 in plasma were determined using a high pressure liquid chromatography/mass spectrometry (LC-MS/MS) method. […] The concentration in plasma below the limit of quantitation (LOQ=5 ng/mL) were designated as zero. […]
Value Type: concentration at 2 hr (ng/mL)
Report only the number, with the unit ng/mL understood.

Qu. Please look at this compound and report its concentration at 2 hr: O=C(CCCCCCC(=O)N/N=C/c1ccc(N(c2ccccc2)c2ccccc2)cc1)NO [WT-161]
Ans. 83.6
